Experiment: NCI Yeast Anticancer Drug Screen. Data for the mec2-1 strain (AID 157)
Settings: S. cerevisiae mec2-1 strain, at 50.0 µM
Compounds without any hit were thinned out: in the full panel of roughly 79,000, 15% have a hit. The source made the active and inactive calls. Cut-off read from the data, not from the text of the source: active = growth inhibition above about 70%; inactive = the rest.
Select the correct class. Options are active, inactive and nothing else.

Please state the recorded outcome for this molecule: CC(C)(C#N)CCCCC(C)(C)C#N
inactive

Please state the recorded outcome for this molecule: CCCCCCCCCCCC(=O)NC(=S)Nc1cc(OC)ccc1OC
inactive

Please state the recorded outcome for this molecule: CC(C)=CCC/C(C)=C/c1cc(C(=O)O)c2c(ccc3ccccc32)n1
inactive

Further cases:
Please state the recorded outcome for this molecule: O=c1[nH]cc(Nc2ccccc2)c(=O)[nH]1
inactive

Please state the recorded outcome for this molecule: O=C1C(n2ccc(=O)[nH]c2=O)CCN1CCCl (stereo unspecified)
inactive

Please state the recorded outcome for this molecule: Cc1cc(=O)c2cc([N+](=O)[O-])ccc2[nH]1
inactive

Please state the recorded outcome for this molecule: CCOc1cn(C2CC(O)C(CO)O2)c(=O)[nH]c1=O (stereo unspecified)
inactive

Please state the recorded outcome for this molecule: O=C(O)C(Br)C(Br)C(=O)Nc1ccc(F)cc1 (stereo unspecified)
active

Please state the recorded outcome for this molecule: CCOC(=O)Cc1ccccn1
inactive

Please state the recorded outcome for this molecule: CCN(CC)CCOC(=O)C1c2ccccc2Oc2ccccc21
inactive

Please state the recorded outcome for this molecule: CC1=NN(C(=O)CC(=O)Nc2ccccc2C)C(=O)C1N=Nc1ccc(S(=O)(=O)c2ccc(N=NC3C(=O)N(C(=O)CC(=O)Nc4ccccc4C)N=C3C)cc2)cc1 (stereo unspecified)
inactive

---

Assay: NCI Yeast Anticancer Drug Screen. Data for the mlh1 rad18 strain (AID 175)
Details: S. cerevisiae mlh1 rad18 strain growth inhibition; at 50.0 µM; stronger effect = higher value
Compounds without any hit were thinned out: in the full panel of roughly 79,000, 15% have a hit.
growth inhibition: recorded values
Reply numerically in %, unit not repeated.

Some solved entries appear below for comparison.
# return recorded growth inhibition for input CCCCCCCCCCCCC(N)C(=O)O (centres undefined)
-1.3

# return recorded growth inhibition for input CCOC(=O)C(/C=N/Nc1ccc([N+](=O)[O-])cc1[N+](=O)[O-])Oc1cccc(OC)c1 (centres undefined)
-1.55

# return recorded growth inhibition for input CC(C)(C)c1ccc(OCCOCCCl)c(Cl)c1
15.2

# return recorded growth inhibition for input CC1(C)C(=O)C(=Cc2ccco2)C1=O
13

# return recorded growth inhibition for input CCCCCCCCCCCCCC(=O)Cl
-104

# return recorded growth inhibition for input O=C(O)c1ccc(Cl)cc1[N+](=O)[O-]
25.1

# return recorded growth inhibition for input CCC/C(=C(\C)c1ccccc1)c1ccccc1
33.3

# return recorded growth inhibition for input O=C(O)c1cc(C(=O)O)cc(N2C(=O)c3ccccc3C2=O)c1
0.5

# return recorded growth inhibition for input Cc1ccc2c(c1)C(C)(C)C(C)C2(C)C (centres undefined)
21.3

# return recorded growth inhibition for input CCOC(=O)C(NNc1ccccc1)C(=O)C(F)(F)F (centres undefined)
18.6

Further cases:
# return recorded growth inhibition for input CC(=O)OC1CCC2(C)C(CCC3C2C(=O)C(Br)C2(C)C(C(C)=O)CCC32)C1 (centres undefined)
25.4

# return recorded growth inhibition for input CNC(=O)Nc1[nH]c(=O)ncc1Cl
5.2
